Where these numbers come from: the supplement of paper PMC10567573

Please provide measured protein stability index for the entries that follow.
B1: CDKN1A (parent)
chain: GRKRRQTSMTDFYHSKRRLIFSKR

Variants of: B1
ASSAY REMARKS: protein stability index of a GFP-peptide fusion (GPS, HEK-293T) (PSI 1-6); higher = more stable;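 further: lentivirally expressed fusions sorted by FACS into six bins by GFP to DsRed ratio, PSI derived from sequencing read proportions per bin multiplied by bin number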
SETTINGS: c terminus: a fixed tail appended
Numbers only.

MUTATION SPEC | OBSERVED RESULT
M9H | 3.21

Your task in this section: give protein stability index for each listed record.
1. R18P
2. S8F

1. 2.11
2. 3.4

Your task in this section: give protein stability index for each listed record.
1. T7Q
2. G1H
3. F21G
4. L19C
5. R4N

1. 2.12
2. 3.16
3. 3.13
4. 2.81
5. 4.63
